Origin of measurements: paper PMC7251097

Biological target: His6-AspH315–758 (human aspartate/asparagine-β-hydroxylase, AspH) (Homo sapiens)
Construct: N-Terminally His6-tagged human AspH315–758 (His6-AspH315–758) was produced in E. coli BL21 (DE3) cells; made in house; host or cells: E. coli BL21 (DE3), pET-28a(+) vector
Sequence (Q12797 315-758): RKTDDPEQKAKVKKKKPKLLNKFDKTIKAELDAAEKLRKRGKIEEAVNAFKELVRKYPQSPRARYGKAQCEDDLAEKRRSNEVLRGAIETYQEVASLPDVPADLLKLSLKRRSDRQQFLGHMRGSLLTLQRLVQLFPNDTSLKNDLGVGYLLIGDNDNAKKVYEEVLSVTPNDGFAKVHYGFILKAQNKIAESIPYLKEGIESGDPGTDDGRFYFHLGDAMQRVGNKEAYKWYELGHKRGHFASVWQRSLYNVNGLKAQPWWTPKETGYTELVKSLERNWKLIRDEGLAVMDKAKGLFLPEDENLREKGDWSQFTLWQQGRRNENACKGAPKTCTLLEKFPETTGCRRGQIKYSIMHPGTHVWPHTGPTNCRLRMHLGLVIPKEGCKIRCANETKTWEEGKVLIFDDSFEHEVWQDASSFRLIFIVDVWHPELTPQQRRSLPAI
Assay: SPE-MS AspH inhibition assay (LOPAC screen at fixed 20 μM and IC50 dose-response), hydroxylation of cyclic peptide hFX-CP101–119
Type: biochemical
Conditions: LOPAC compound at 20uM, plate 2; normalised to DMSO and 2,4-PDCA controls; read-out: Plate 2 (% inhibition)
Where a name gives a salt, the structure may show the parent alone.
measurement.label: inhibition at 20 µM (%)
Note: unit % is implicit; provide only the numeric part.

stdin: Give inhibition at 20 µM for this entry on His6-AspH315–758 (human aspartate/asparagine-β-hydroxylase, AspH) (Homo sapiens): O=c1[nH]c(=S)[nH]c(-c2ccccc2)c1Cc1c(O)ccc2ccccc12
stdout: 31.2

stdin: Provide measured inhibition at 20 µM on His6-AspH315–758 (human aspartate/asparagine-β-hydroxylase, AspH) (Homo sapiens) for CCOC(=O)c1cnc2c(cnn2CC)c1NN=C(C)C [Etazolate hydrochloride] please.
stdout: -67.4

stdin: Give the observed inhibition at 20 µM of CCOC(=O)Nc1ccc(NCc2ccc(F)cc2)nc1N [Flupirtine maleate] for His6-AspH315–758 (human aspartate/asparagine-β-hydroxylase, AspH) (Homo sapiens).
stdout: 6.29

stdin: State recorded inhibition at 20 µM with His6-AspH315–758 (human aspartate/asparagine-β-hydroxylase, AspH) (Homo sapiens), entry OCCN1CCN(CC/C=C2/c3ccccc3Sc3ccc(C(F)(F)F)cc32)CC1 [cis-(Z)-Flupenthixol dihydrochloride] , no comment.
stdout: -94

stdin: Lab note: His6-AspH315–758 (human aspartate/asparagine-β-hydroxylase, AspH) (Homo sapiens) assay, enter inhibition at 20 µM for CNCCC(Oc1ccc(C(F)(F)F)cc1)c1ccccc1 (stereo not drawn) [Fluoxetine hydrochloride] here
stdout: -23.6

stdin: Enter measured inhibition at 20 µM, system His6-AspH315–758 (human aspartate/asparagine-β-hydroxylase, AspH) (Homo sapiens), for the compound shown: NS(=O)(=O)c1cc2c(cc1Cl)NCNS2(=O)=O [Hydrochlorothiazide]
stdout: -1.41

stdin: Fetch value of inhibition at 20 µM on His6-AspH315–758 (human aspartate/asparagine-β-hydroxylase, AspH) (Homo sapiens) for NS(=O)(=O)c1cc(C(=O)O)c(NCc2ccco2)cc1Cl [Furosemide] .
stdout: 2.67

stdin: Please report the measured inhibition at 20 µM for Clc1ccc2c(c1)N=C(N1CCNCC1)c1ccccc1N2 tested on His6-AspH315–758 (human aspartate/asparagine-β-hydroxylase, AspH) (Homo sapiens).
stdout: -3.91

stdin: Look up His6-AspH315–758 (human aspartate/asparagine-β-hydroxylase, AspH) (Homo sapiens) data: inhibition at 20 µM of COc1cc(C(=O)OCCCN2CCCN(CCCOC(=O)c3cc(OC)c(OC)c(OC)c3)CC2)cc(OC)c1OC [Dilazep hydrochloride] , then report it.
stdout: -16.5

====

Target: His6-AspH315–758 (human aspartate/asparagine-β-hydroxylase, AspH) (Homo sapiens)
Construct: N-Terminally His6-tagged human AspH315–758 (His6-AspH315–758) was produced in E. coli BL21 (DE3) cells; made in house; host or cells: E. coli BL21 (DE3), pET-28a(+) vector
Experiment: SPE-MS AspH inhibition assay (LOPAC screen at fixed 20 μM and IC50 dose-response), hydroxylation of cyclic peptide hFX-CP101–119
Type: biochemical
Conditions: 50 nM His6-AspH315–758, 1.0 μM hFX-CP101–119, 3 μM 2OG, 2 μM Fe(II), 50 mM HEPES pH 7.5, 20 °C; mean ± SD, n = 2 (2,4-PDCA n = 10)

[
  {
    "compound": "CC(C)c1c(-c2ccccc2)[nH]c2c(C#N)cnn2c1=O [CPI-455, reference compound]",
    "IC50 [μM]": "inactive"
  },
  {
    "compound": "CCOC(=O)CCNc1cc(N2CCc3ccccc3CC2)nc(-c2ccccn2)n1 [GSK-J4, reference compound]",
    "IC50 [μM]": "inactive"
  },
  {
    "compound": "O=C(O)C(=O)N[C@H](Cc1ccccc1)C(=O)O [NOFD, N-oxalyl-D-phenylalanine, reference compound]",
    "IC50 [μM]": "weak"
  }
]
